assay: qHTS for Inhibitors of the Functional Ribonucleoprotein Complex (vRNP) of Lassa (LASV) Arenavirus: Viability assay - alamar blue signal for LASV Primary Screen (AID 1347083); conditions: cell viability, alamar blue fluorescence (LASV minigenome counter-screen); series mostly up to 57.5 µM; note: nearly all actives have a fitted effect of over 80% in size
Results filed as inconclusive are left out. The source made the active and inactive calls. Calls come from the whole dose curve; tested in HEK293 reporter line.
Outcomes: active, inactive

compound	category
O=C(O)CNC(=O)CNC(=O)CNC(=O)CSC(=O)c1ccccc1	inactive
COCCOCCO	inactive
COc1ccccc1-c1cccc(-c2c(O)c3cc(C#N)c(Cl)cc3[nH]c2=O)c1	inactive
COC(=O)c1c(Cl)c(Cl)c(C(=O)OC)c(Cl)c1Cl	inactive
CC(C)c1ccc(Cn2ccc3c4c(N)nc(NC5CC5)nc4ccc32)cc1	active
C[C@](O)(COc1ccc(C#N)cc1)C(=O)Nc1ccc(C#N)c(C(F)(F)F)c1	active
NC(CO)(CO)CCc1ccc(Sc2cccc(OCc3ccccc3)c2)cc1Cl	inactive
O=C(O)CC(O)C(=O)O (stereo not given)	inactive
COc1cc(OC2CCN(C)CC2)ccc1Nc1ncc2c(n1)n(C1CCCC1)c(=O)n2C	active
OCCn1cc(-c2ccc3c(c2)CCC3=NO)c(-c2ccncc2)n1	active
O=C(O)COc1nc(Cl)c(Cl)cc1Cl	inactive
Oc1ccc2c3c1O[C@H]1[C@@H](O)C=C[C@H]4[C@@H](C2)NCC[C@@]341	inactive
O=C(C=Cc1ccc(/C=C/C(=O)Nc2ccc(C3=NCCN3)cc2)cc1)Nc1ccc(C2=NCCN2)cc1	inactive
C[C@H](CN1CCCC1)C(=O)c1ccc(C(F)(F)F)cc1	inactive
CCc1cncnc1N1CCN(Cc2nc3ccc(C(F)(F)F)cc3[nH]2)CC1	inactive
